System: HCC-2998 colon
EXPERIMENT NOTES: NCI-60 one-dose screen, 48 h (100 = growth as untreated, 0 = no growth, -100 = all killed)
TEST CONTEXT: 10 µM unless noted
About 83,000 compounds went through this panel and 20% of them were active in at least one assay; those are over-represented in the sample as a whole.
The following molecules are listed with their measured growth values.
EXPERIMENTAL READOUT: growth (%)

[[record]]
molecule = "Cc1cc2cc3cc(C)c(N(C)C)cc3[n+](C)c2cc1N(C)C"
experimental_readout = "growth"
data_value = 25.6

[[record]]
molecule = "Cc1ccc(Nc2nc(N)nc(Nc3ccc4ccccc4c3)n2)cc1"
experimental_readout = "growth"
data_value = 77.5

[[record]]
molecule = "C=C1CC2(OC1=O)C(=O)N(CCCCCCCN1C(=O)C3(CC(=C)C(=O)O3)c3ccccc31)c1ccccc12 (stereo not given)"
experimental_readout = "growth"
data_value = 82.5

[[record]]
molecule = "CCCNc1nc(SC)nc(-c2cccc(N)c2)c1C#N"
experimental_readout = "growth"
data_value = 108

[[record]]
molecule = "CC/C=C\\C[C@H](F)C/C=C1/C(=O)C=C[C@@H]1C/C=C\\CCCC(=O)OC"
experimental_readout = "growth"
data_value = 9.38

[[record]]
molecule = "Cn1c2ccccc2c2c3[nH]c(=O)[nH]c(=O)c3c3c4ccccc4n(C)c3c21"
experimental_readout = "growth"
data_value = 73.9

[[record]]
molecule = "COCCCNc1nc(NC(=O)c2ccc(F)cc2C)cc(-c2cccnc2)n1"
experimental_readout = "growth"
data_value = 103

[[record]]
molecule = "CSc1nc2sc3c(c2c(=O)n1-c1ccc(C(C)C)cc1)CCC(=O)C3"
experimental_readout = "growth"
data_value = 16.5

[[record]]
molecule = "CN1CCN(Cc2ccc(NC(=O)c3cncc(C#Cc4cnc(N)c5cccnc45)c3)cc2C(F)(F)F)CC1"
experimental_readout = "growth"
data_value = 30.2

[[record]]
molecule = "O=C(O)c1ccccc1Nc1cccc(S(F)(F)(F)(F)F)c1"
experimental_readout = "growth"
data_value = 108

[[record]]
molecule = "CCN(CC)Cc1cc(Nc2c3ccccc3nc3cc(Cl)ccc23)ccc1O"
experimental_readout = "growth"
data_value = -100

[[record]]
molecule = "CCOC(=O)C(Cc1cc(I)c(O)c(I)c1)NC(=O)c1ccccc1 (stereo not given)"
experimental_readout = "growth"
data_value = 119

[[record]]
molecule = "O=c1ccc2cc3ccccc3cc2[nH]1"
experimental_readout = "growth"
data_value = 83.3

[[record]]
molecule = "COc1cc(/C=N\\NC(=O)CN2CCN(c3cc4c(cc3F)c(=O)c(C(=O)N/N=C/c3ccc(O)c(OC)c3)cn4C3CC3)CC2)ccc1O"
experimental_readout = "growth"
data_value = 7.72

[[record]]
molecule = "COc1ccc(/C=C2\\CN(C(=O)CCN3CCC(=NO)CC3)C/C(=C\\c3ccc(OC)cc3)C2=O)cc1"
experimental_readout = "growth"
data_value = -89.5

